# protocol_details: adipocyte viability effects, profiling panel, cell-based, 3T3-L1 adipocytes, calcein-AM fluorescence, 48 h, basal (AID 1163); note: test concentration not given here
# measurement_conditions: 3T3-L1 adipocytes viability, higher = more signal
The following compounds are shown together with reported z-score values.
Give a plain numeric answer without units written out.

## Input Let me know recorded z-score for `COCCOC(=O)N1C(=O)[C@@]2(c3cc(C#CCC(C(=O)OC)C(=O)OC)ccc31)[C@H](c1ccccc1OCCO)N1[C@H](c3ccccc3)[C@H](c3ccccc3)OC(=O)[C@H]1[C@@H]2C(N)=O` , thanks.
## Output 0.0915

====

# protocol_details: fission yeast growth modulation, primary screen, strain 972, OD600, 24 h, no modulator (AID 1090);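 note: basal condition with compound alone and no growth modifier present; test concentration not given here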
# measurement_conditions: S. pombe 972 growth, higher = more signal, called active from +8 up or from −8 down
The threshold is inclusive: z-score of exactly -1 counts as yes (1); values below receive no (0).

{"compound": "O=C(CCN1CCOCC1)c1cccc(O)c1", "assigned_class": "no (0)"}
{"compound": "CS(=O)(=O)CCOC(=O)C1=CC(CCCO)=CC(c2cccs2)N(Cc2cc3c(cc2Br)OCO3)C=C1C(=O)OCCS(C)(=O)=O (configuration not stated)", "assigned_class": "no (0)"}
{"compound": "O=C1C=CC(=O)[C@@H]2CC(COc3ccccc3)=C3[C@@H](CCc4ccccc4)OB(O)C[C@@H]3[C@H]12", "assigned_class": "no (0)"}
{"compound": "CCCCCCc1nc(CCCc2cc3c(c(CCCCCC)n2)[Si](C(C)C)(C(C)C)OC3)cc2c1[Si](C(C)C)(C(C)C)OC2", "assigned_class": "no (0)"}
{"compound": "O=C1C[C@@](C(=O)NC2CC2)(c2ccc([N+](=O)[O-])cc2)[C@@H](c2ccc(CO)cc2)N1CC12CC3CC(CC(C3)C1)C2", "assigned_class": "no (0)"}
{"compound": "CC(=O)NCCCC[C@@H]1NC(=O)[C@H]2C[C@@H](C(=O)NCCCCCC[N+](C)(C)C)[C@@H](c3cccc(OCCO)c3)N2C1=O", "assigned_class": "yes (1)"}
{"compound": "O=C1O[C@@H](c2ccccc2)[C@@H](c2ccccc2)N2[C@@H](c3ccc(OCCO)cc3)[C@]3(C(=O)Nc4ccc(C#CC5=CCCCC5)cc43)[C@@H](C(=O)O)[C@H]12", "assigned_class": "yes (1)"}
{"compound": "O=C1[C@]2(CO)C=C(Br)[C@@H](C[C@@H]2c2ccccc2)[C@@]12CO2", "assigned_class": "no (0)"}
{"compound": "[N-]=[N+]=Nc1ccccc1[C@H]1OC(c2ccc(OCCCO)cc2)=N[C@@]1(CCS(=O)(=O)c1ccccc1)C(=O)O", "assigned_class": "no (0)"}
{"compound": "CCCN1C(=O)[C@]2(COC(c3ccc(OCCCO)cc3)=N2)Cc2ccccc21", "assigned_class": "no (0)"}

## Input hey, is z-score for this one >= -1? CCOC(=O)[C@H]1C[C@H]2O[C@@]23C[C@H]1C(=O)N1CCCC1[C@@H]3O[Si](C)(C)C(C)(C)C (some centres not stated)
## Output no (0)

## Input # check: z-score of [N-]=[N+]=NCc1ccccc1C[C@@]1(C(=O)NCC(O)CO)N=C(c2ccc(OCCCO)cc2)O[C@@H]1c1ccccc1CN=[N+]=[N-] (some centres not stated) is greater than or equal to -1
## Output yes (1)

## Input Does `CO[C@H]1O[C@H](CO)[C@@H](OC(=O)Nc2ccc(Oc3ccccc3)cc2)[C@H](OC(=O)Nc2ccccc2)[C@H]1OC(=O)Nc1ccccc1` have a reported z-score of at least -1?
## Output yes (1)

## Input Textbook exercise: given the entry `CC(C)Cc1ccc(CN2CC[C@@H](NS(=O)(=O)c3ccccc3)C2)cc1` , state whether its z-score is greater than or equal to -1.
## Output no (0)

## Input Given `O=C1c2ccccc2[C@@]2(Cc3ccccc3N(Cc3ccccc3)C2=O)[C@H](c2ccc(CO)cc2)N1C1CCCCC1` , state whether its z-score is at least -1.
## Output yes (1)

## Input Threshold query (z-score >= -1) on CC(C)c1ccc(NN2C(C(O)c3c(F)cccc3Cl)C=CC3C(=O)N(c4ccccc4)C(=O)C32)cc1 (configuration not stated)
## Output yes (1)

## Input Textbook exercise: given the entry `COc1ccc([Si](C)(C)[C@@H]2[C@@H](CCn3cc([C@H](O)c4ccccc4)nn3)O[C@]3(C(=O)N(Cc4cccc(N5CCOC5=O)c4)c4ccccc43)[C@H]2C)cc1` , state whether its z-score is greater than or equal to -1.
## Output yes (1)

## Input z-score >= -1 for `O=c1cccc(CCc2ccccc2)o1` ?
## Output no (0)

## Input Has CC(=O)C1=CCC(c2ccccc2)N(S(=O)(=O)c2ccc(C)cc2)C1 (configuration not stated) a recorded z-score greater than or equal to -1?
## Output yes (1)

## Input Hi, just wondering whether `CC(=O)Nc1cc(Br)ccc1C(=O)O` shows z-score of -1 or higher.
## Output yes (1)

## Input Decide: is the reported value of z-score for `COc1ccc(C(=O)Nc2cccc(CN3C(=O)[C@@]4(O[C@@H](CCn5cc(CCO)nn5)[C@H]([Si](C)(C)c5ccc(OC)cc5)[C@H]4C)c4ccccc43)c2)cc1` equal to or greater than -1?
## Output no (0)
